# System: TGF-β-induced luciferase activity in HEK293T cells
# assay-comment: TGF-β-induced SMAD luciferase reporter assay in HEK293T cells
# Format: cell-based
# conditions-used: Homo sapiens, HEK-293T, Experiment 3, 100 μM TGFβ, 24 hours, read-out: Experiment 3 IC50
measured-endpoint: pIC50
// pIC50 is dimensionless: -log10 of concentration (M)

Request: Fill in the blank: the reported pIC50 of "CNCCOc1ccc(-c2cc(-c3c[nH]nc3-c3cccc(C)n3)ccn2)cc1" is ____.
Result: 7.88

====

# Test system: TGF-β-induced luciferase activity in HEK293T cells
# assay-comment: TGF-β-induced SMAD luciferase reporter assay in HEK293T cells
# Format: cell-based
# conditions-used: Homo sapiens, HEK-293T, Experiment 2, 100 μM TGFβ, 24 hours, read-out: Experiment 2 IC50
Items are presented alongside their recorded IC50.

Request: IC50 for "Cc1cccc(-c2nc(N)sc2-c2ccc3ncccc3n2)n1" ?
Result: 29.8 nM

Next:
Request: Data request, read-out IC50, for "CNCCOc1ccc(-c2cc(-c3c[nH]nc3-c3cccc(C)n3)ccn2)cc1"
Result: 21.2 nM

Request: IC50 lookup needed for "CNCCOc1ccc(-c2cc(-c3c[nH]nc3-c3ccccn3)ccn2)cc1" , thanks.
Result: 11.3 nM

Request: If you can, please state the reported IC50 value of "CCNC(=O)c1ccc2c(c1)NC(=O)/C2=C(\Nc1ccc(N(CCNC)S(C)(=O)=O)cc1)c1ccccc1" .
Result: 1520 nM
